# Tested on: barnyardgrass (Echinochloa crus-galli, ECHCG)
# method description: Post-emerge test, greenhouse herbicide activity screening
# Type: in vivo
# measurement parameters: post-emerge, 250 g ai/ha, 14 days after application, rating scale 0-100
experimental readout: ECHCG phytotoxicity rating
One number for each entry.

>  <compound>
CCSCC(=O)Nc1c(OC)c(Cl)cc(F)c1-n1c(=O)cc(C(F)(F)F)n(C)c1=O

>  <ECHCG phytotoxicity rating>
0

$$$$
>  <compound>
COc1c(Cl)cc(F)c(-n2c(=O)cc(C(F)(F)F)n(C)c2=O)c1NC(=O)CSc1ccc2ccccc2c1

>  <ECHCG phytotoxicity rating>
0

$$$$
>  <compound>
COc1c(Br)cc(F)c(-n2c(=O)cc(C(F)(F)F)n(C)c2=O)c1NC(=O)C=Cc1ccccc1 [2-177]

>  <ECHCG phytotoxicity rating>
40

$$$$
>  <compound>
COc1c(Cl)cc(Cl)c(-n2c(=O)cc(C(F)(F)F)n(C)c2=O)c1NC(=O)c1ccc2ccccc2c1

>  <ECHCG phytotoxicity rating>
10

$$$$
>  <compound>
COc1c(Cl)cc(F)c(-n2c(=O)cc(C(F)(F)F)n(N)c2=O)c1NC(=O)c1ccc2ccccc2c1

>  <ECHCG phytotoxicity rating>
50

$$$$
>  <compound>
COc1c(Br)cc(F)c(-n2c(=O)cc(C(F)(F)F)n(C)c2=O)c1NC(=O)C=Cc1ccccc1 [2-175]

>  <ECHCG phytotoxicity rating>
20

$$$$

Return reported ECHCG phytotoxicity rating values for all items listed beneath this line.
1. COc1cc2ccccc2cc1C(=O)Nc1c(OC)c(Cl)cc(F)c1-n1c(=O)cc(C(F)(F)F)n(C)c1=O
2. COc1c(Cl)cc(F)c(-n2c(=O)cc(C(F)(F)F)n(C)c2=O)c1NC(=O)CCc1cc(C)ccc1C
3. COc1c(Cl)cc(F)c(-n2c(=O)cc(C(F)(F)F)n(C)c2=O)c1NC(=O)C=Cc1ccccc1F
4. COc1c(Br)cc(F)c(-n2c(=O)cc(C(F)(F)F)n(C)c2=O)c1N(C(=O)C=Cc1ccccc1)C(=O)C=Cc1ccccc1
5. Cn1c(C(F)(F)F)cc(=O)n(-c2ccc(C(F)(F)F)cc2NC(=O)c2ccc3ccccc3c2)c1=O

Output:
1. 50
2. 60
3. 40
4. 0
5. 50

Return reported ECHCG phytotoxicity rating values for all items listed beneath this line.
1. COc1c(Cl)cc(F)c(-n2c(=O)cc(C(F)(F)F)n(C)c2=O)c1NC(=O)c1ccc2c(C#N)cccc2c1
2. CCCSCC(=O)Nc1c(OC)c(Cl)cc(F)c1-n1c(=O)cc(C(F)(F)F)n(C)c1=O
3. CCOC(=O)C(C)SCC(=O)Nc1c(OC)c(Cl)cc(F)c1-n1c(=O)cc(C(F)(F)F)n(C)c1=O (centres unmarked)

Output:
1: 70; 2: 0; 3: 0

* * *

# Tested on: sicklepod (Cassia obtusifolia, CASOB)
# method description: Post-emerge test, greenhouse herbicide activity screening
# Type: in vivo
# measurement parameters: Rate 250 g ai/ha; rating scale 0-100 (0 no damage, 100 complete death); 14 days after application
experimental readout: Post-emerge Herbicidal Activity, phytotoxicity rating CASOB
Give bare numbers.

Completed entries (count: 2):
>  <molecule>
CCCCCCOC(=O)C(Cl)Cc1c(OC)c(Cl)cc(F)c1-n1c(=O)cc(C(F)(F)F)n(C)c1=O (single isomer, unassigned)

>  <value reported>
80

$$$$
>  <molecule>
COc1c(Cl)cc(F)c(-n2c(=O)cc(C(F)(F)F)n(C)c2=O)c1CC(Cl)C(=O)OCC(F)(F)C(F)F (stereo not shown)

>  <value reported>
50

$$$$

Return reported Post-emerge Herbicidal Activity, phytotoxicity rating CASOB values for all items listed beneath this line.
1. CCCCOC(=O)C(C)(Cl)Cc1c(OC)c(Cl)cc(F)c1-n1c(=O)cc(C(F)(F)F)n(C)c1=O (stereo not shown)
2. COCCOC(=O)C(Cl)Cc1c(OC)c(Cl)cc(F)c1-n1c(=O)cc(C(F)(F)F)n(C)c1=O (stereo not shown)
3. COc1c(Cl)cc(F)c(-n2c(=O)cc(C(F)(F)F)n(C)c2=O)c1CC(Cl)C(=O)OCCC(C)C (single isomer, unassigned)
4. CCOC(=O)C(Cl)Cc1c(OC)c(Cl)cc(F)c1-n1c(=O)cc(C(F)(F)F)n(C)c1=O (single isomer, unassigned)
5. CCOC(=O)C(Cl)(CC(=O)OC)Cc1c(OC)c(Cl)cc(F)c1-n1c(=O)cc(C(F)(F)F)n(C)c1=O (stereo not shown)
6. CCOC(=O)C(Cl)(C#N)Cc1c(OC)c(Cl)cc(F)c1-n1c(=O)cc(C(F)(F)F)n(C)c1=O (stereo not shown)

Output:
1: 40; 2: 80; 3: 40; 4: 50; 5: 100; 6: 0

Return reported Post-emerge Herbicidal Activity, phytotoxicity rating CASOB values for all items listed beneath this line.
1. CCOCCOC(=O)C(Cl)Cc1c(OC)c(Cl)cc(F)c1-n1c(=O)cc(C(F)(F)F)n(C)c1=O (stereo not shown)
2. CCOC(=O)C(Cl)Cc1cc(Cl)cc(F)c1-n1nc(C)n(C(F)F)c1=O (stereo not shown)
3. COc1c(Cl)cc(F)c(-n2c(=O)cc(C(F)(F)F)n(C)c2=O)c1CC(Cl)C(=O)OCCC#N (stereo not shown)
4. COc1c(Cl)cc(F)c(-n2c(=O)cc(C(F)(F)F)n(C)c2=O)c1CC(Cl)C(=O)OCC(C)C (single isomer, unassigned)

Output:
1. 90
2. 70
3. 40
4. 60

Return reported Post-emerge Herbicidal Activity, phytotoxicity rating CASOB values for all items listed beneath this line.
1. C#CCOC(=O)C(C)(Cl)Cc1c(OC)c(Cl)cc(F)c1-n1c(=O)cc(C(F)(F)F)n(C)c1=O (stereo not shown)
2. COc1c(Cl)cc(F)c(-n2c(=O)cc(C(F)(F)F)n(C)c2=O)c1CC(C)(Cl)C(=O)OCC1CCCO1 (stereo not shown)
3. CCOC(=O)C(Br)Cc1c(OC)c(Cl)cc(F)c1-n1c(=O)cc(C(F)(F)F)n(C)c1=O (single isomer, unassigned)
4. CCOC(=O)C(Cl)Cc1c(C)c(Cl)cc(F)c1-n1c(=O)cc(C(F)(F)F)n(C)c1=O (stereo not shown)

Output:
1. 0
2. 95
3. 0
4. 30

Values from patent US6355799B1
